- test target: T1, rat NPR-A (rat, UniProt P18910 29-1057)
- T1 sequence (looked up): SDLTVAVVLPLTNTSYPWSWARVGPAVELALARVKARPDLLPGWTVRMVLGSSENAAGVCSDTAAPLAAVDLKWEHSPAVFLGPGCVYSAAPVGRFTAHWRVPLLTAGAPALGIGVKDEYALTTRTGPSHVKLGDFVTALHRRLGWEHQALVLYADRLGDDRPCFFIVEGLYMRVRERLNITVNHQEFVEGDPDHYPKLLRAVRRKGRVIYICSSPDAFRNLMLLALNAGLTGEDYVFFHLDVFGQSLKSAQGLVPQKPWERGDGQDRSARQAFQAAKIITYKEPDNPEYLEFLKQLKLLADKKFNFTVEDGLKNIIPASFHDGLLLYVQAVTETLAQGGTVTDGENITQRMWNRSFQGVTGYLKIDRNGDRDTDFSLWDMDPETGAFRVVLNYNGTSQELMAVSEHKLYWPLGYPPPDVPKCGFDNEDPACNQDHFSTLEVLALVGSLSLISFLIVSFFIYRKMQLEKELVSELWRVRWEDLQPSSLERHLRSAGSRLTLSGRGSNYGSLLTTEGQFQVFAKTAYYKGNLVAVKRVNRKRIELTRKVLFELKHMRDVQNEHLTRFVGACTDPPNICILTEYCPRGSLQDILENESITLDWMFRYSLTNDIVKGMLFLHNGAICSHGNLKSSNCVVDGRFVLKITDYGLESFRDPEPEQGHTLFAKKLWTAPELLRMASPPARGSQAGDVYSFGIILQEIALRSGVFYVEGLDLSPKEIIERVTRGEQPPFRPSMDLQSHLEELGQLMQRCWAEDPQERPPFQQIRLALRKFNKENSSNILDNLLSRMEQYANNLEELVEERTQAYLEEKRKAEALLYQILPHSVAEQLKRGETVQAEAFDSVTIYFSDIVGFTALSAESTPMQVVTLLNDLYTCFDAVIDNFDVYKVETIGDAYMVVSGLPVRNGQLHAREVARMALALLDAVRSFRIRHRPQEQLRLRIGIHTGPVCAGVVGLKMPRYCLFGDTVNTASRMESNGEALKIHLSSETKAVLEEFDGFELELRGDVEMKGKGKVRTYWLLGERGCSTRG
- method summary: cell-based or functional assay
# Lookup of reported EC50 on rNPRA reporter cells keyed by entry

binder	EC50 on rNPRA reporter cells
TPP-11153 (antibody, V domains shown) VH: EVQLLESGGGLVQPGGSLRLSCAASGFTFSSYAMSWVRQAPGKGLEWVSAISGSGGSTYYADSVKGRFTISRDNSKNTLYLQMNSLRAEDTAVYYCTSVHQETKKYQSSPDGGSGGSGGGSYSYTYNYEWHVDVWGQGTLVTVSS VL: QSVLTQPPSVSGAPGQRVTISCTGSSSNIGAGYDVHWYQQLPGTAPKLLIYGNSNRPSGVPDRFSGSKSGTSASLAITGLQAEDEADYYCQSYDSSLSGVVFGGGTKLTVLG	> 1000 nM
TPP-11155 (antibody, V domains shown) VH: EVQLLESGGGLVQPGGSLRLSCAASGFTFSSYAMSWVRQAPGKGLEWVSAISGSGGSTYYADSVKGRFTISRDNSKNTLYLQMNSLRAEDTAVYYCTSVHQETKKYQSSPDGGSYSYTYNYEWHVDVWGQGTLVTVSS VL: QSVLTQPPSVSGAPGQRVTISCTGSSSNIGAGYDVHWYQQLPGTAPKLLIYGNSNRPSGVPDRFSGSKSGTSASLAITGLQAEDEADYYCQSYDSSLSGVVFGGGTKLTVLG	< 20 nM
TPP-11157 (antibody, V domains shown) VH: GFTFSSYAMSWVRQAPGKGLEWVSAISGSVVVTSHQAPGGGSGGGEKKKLKSLAYGSTYYADSVKGRFTISRDNSKNTLYLQMNSLRAEDTAVYYCAKLTGAEYFQHWGQGTLVTVSS VL: QSVLTQPPSVSGAPGQRVTISCTGSSSNIGAGYDVHWYQQLPGTAPKLLIYGNSNRPSGVPDRFSGSKSGTSASLAITGLQAEDEADYYCQSYDSSLSGVVFGGGTKLTVLG	< 20 nM

Proceed to the following item.
Lookup: Would you mind telling me what EC50 on rNPRA reporter cells value was observed for TPP-11154 (antibody, V domains shown) VH: EVQLLESGGGLVQPGGSLRLSCAASGFTFSSYAMSWVRQAPGKGLEWVSAISGSGGSTYYADSVKGRFTISRDNSKNTLYLQMNSLRAEDTAVYYCTSVHQETKKYQSSPDGGSGGGSYSYTYNYEWHVDVWGQGTLVTVSS VL: QSVLTQPPSVSGAPGQRVTISCTGSSSNIGAGYDVHWYQQLPGTAPKLLIYGNSNRPSGVPDRFSGSKSGTSASLAITGLQAEDEADYYCQSYDSSLSGVVFGGGTKLTVLG ?
Found: < 20 nM
